Assay: molar heat capacity at constant pressure
Conditions: 313.2 K; 101.33 kPa; Liquid; Small sample (50 mg) DSC
MEASURE: molar heat capacity at constant pressure (J/K/mol)

[[record]]
molecule = "CCn1cc[n+](C)c1.F[B-](F)(F)F [1-ethyl-3-methylimidazolium tetrafluoroborate]"
numeric_readout = 310.61

[[record]]
molecule = "CCn1cc[n+](C)c1.N#CN=C=[N-] [1-ethyl-3-methylimidazolium dicyanamide]"
numeric_readout = 332.97

[[record]]
molecule = "CCn1cc[n+](C)c1.COCCOCCOS(=O)(=O)[O-] [1-ethyl-3-methylimidazolium 2-(2-methoxyethoxy) ethylsulfate]"
numeric_readout = 529.49

[[record]]
molecule = "CCn1cc[n+](C)c1.O=S(=O)([O-])C(F)(F)F [1-ethyl-3-methylimidazolium trifluoromethanesulfonate]"
numeric_readout = 383.33

[[record]]
molecule = "CCOS(=O)(=O)[O-].CCn1cc[n+](C)c1 [1-ethyl-3-methylimidazolium ethyl sulfate]"
numeric_readout = 435.01

